Hey, just so you know, these numbers are from patent US9850283B2.

- Tested target: LK35.2-hPD-L1 cells / PE-labeled PD-1-Ig (Homo sapiens, UniProt Q9NZQ7)
- Construct: expressed in transfected cells; host or cells: LK35.2 mouse B cell line
- Sequence (Q9NZQ7 19-290): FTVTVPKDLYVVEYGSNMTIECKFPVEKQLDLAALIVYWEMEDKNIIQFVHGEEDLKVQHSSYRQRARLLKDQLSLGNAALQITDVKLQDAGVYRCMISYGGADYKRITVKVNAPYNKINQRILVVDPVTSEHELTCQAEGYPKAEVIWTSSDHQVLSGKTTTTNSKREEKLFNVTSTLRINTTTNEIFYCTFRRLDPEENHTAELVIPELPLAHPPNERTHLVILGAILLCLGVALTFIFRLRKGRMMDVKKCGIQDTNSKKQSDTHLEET
- Assay info: LK35.2-hPD-L1 cell binding high-content screening assay
- Type: cell-based
- Test conditions: cluster symbol; cell line of CBA not given (LK35.2-hPD-L1 or 293T-hPD-L1); read-out: CBA IC50 cluster
pIC50: −log10 of the molar value. Positions of bridges follow the written chain, without caps; N, C: chain ends. Non-standard residues stand in square brackets, D forms with d. Residues, ends and D or L forms follow the SMILES beside them. ξ: configuration not given here. NMeNle = CCCC[C@H](NC)C(=O)O; NMeA = CN[C@@H](C)C(=O)O; ξP = O=C(O)C1CCCN1; Sar = CNCC(=O)O
Form field: pIC50 (one value per entry).

CCCC[C@H]1C(=O)N(C)[C@@H](CCCC)C(=O)N[C@@H](C)C(=O)N[C@H](C(=O)NCC(=O)O)CSCC(=O)N[C@@H](Cc2ccc(O)cc2)C(=O)N(C)[C@@H](C)C(=O)N[C@@H](CC(N)=O)C(=O)N2CCC[C@H]2C(=O)N[C@@H](Cc2cnc[nH]2)C(=O)N[C@@H](CC(C)C)C(=O)N[C@@H](CCCN)C(=O)N[C@@H](Cc2c[nH]c3ccccc23)C(=O)N[C@@H](CO)C(=O)N[C@@H](Cc2csc3ccccc23)C(=O)N1C [Example 1153] = 7.14 to 8.32
CCCC[C@H]1C(=O)N(C)[C@@H](CCCC)C(=O)N[C@@H](CC(=O)O)C(=O)N[C@H](C(=O)NCC(N)=O)CSCC(=O)N[C@@H](Cc2ccc(O)cc2)C(=O)N(C)[C@@H](C)C(=O)N[C@@H](CC(=O)O)C(=O)N2CCC[C@H]2C(=O)N[C@@H](Cc2c[nH]cn2)C(=O)N[C@@H](CCCNC(=N)N)C(=O)N2CCCC2C(=O)N[C@@H](Cc2c[nH]c3ccccc23)C(=O)N[C@@H](CCCNC(=N)N)C(=O)N[C@@H](Cc2c[nH]c3ccccc23)C(=O)N1C (stereo partly drawn) [Example 1201] ({CH2CO}-Y[NMeA]DPHR[ξP]WRW[NMeNle][NMeNle]DCG-NH2; thioether N-14) = 7.14 to 8.32

INPUT: // query pIC50 value for entry CCCC[C@H]1C(=O)N(C)[C@@H](CCCC)C(=O)N[C@@H](CCCNC(=N)N)C(=O)N[C@H](C(=O)NCC(N)=O)CSCC(=O)N[C@@H](Cc2ccccc2)C(=O)N(C)[C@@H](C)C(=O)N[C@@H](CC(C)C)C(=O)N2CCC[C@H]2C(=O)N[C@@H](Cc2cnc[nH]2)C(=O)N[C@@H](CC(C)C)C(=O)N(C)CC(=O)N[C@@H](Cc2c[nH]c3ccccc23)C(=O)N[C@@H](CO)C(=O)N[C@@H](Cc2c[nH]c3ccccc23)C(=O)N1C [Example 1082] ({CH2CO}-F[NMeA]LPHL[Sar]WSW[NMeNle][NMeNle]RCG-NH2; thioether N-14)
OUTPUT: < 7.13

###

- Tested target: Human PD-L1/PD-1 (Homo sapiens)
- Construct: made in house; host or cells: HEK293T
- Assay info: HTRF PD-1-Ig/PD-L1-His binding assay (human PD-L1)
- Test conditions: cluster symbol; read-out: HTRF IC50 cluster
Positions of bridges follow the written chain, without caps; N, C: chain ends. Non-standard residues stand in square brackets, D forms with d. Residues, ends and D or L forms follow the SMILES beside them. ξ: configuration not given here. Bta = N[C@@H](Cc1csc2ccccc12)C(=O)O; NMeNle = CCCC[C@H](NC)C(=O)O; NMeM = CN[C@@H](CCSC)C(=O)O; NMeA = CN[C@@H](C)C(=O)O; ξC = NC(CS)C(=O)O; Sar = CNCC(=O)O
Test readout: IC50

CCCC[C@H]1C(=O)N(C)[C@@H](CCCC)C(=O)N[C@@H](CCCNC(=N)N)C(=O)N[C@H](C(=O)NCC(=O)NCC(N)=O)CSCC(=O)N[C@@H](Cc2ccccc2)C(=O)N(C)[C@@H](C)C(=O)N[C@@H](CC(N)=O)C(=O)N2CCC[C@H]2C(=O)N[C@@H](Cc2cnc[nH]2)C(=O)N[C@@H](CC(C)C)C(=O)N(C)CC(=O)N[C@@H](Cc2c[nH]c3ccccc23)C(=O)N[C@@H](CO)C(=O)N[C@@H](Cc2c[nH]c3ccccc23)C(=O)N1C [Example 6001] ({CH2CO}-F[NMeA]NPHL[Sar]WSW[NMeNle][NMeNle]RCGG-NH2; thioether N-14) = 6.76 to 30.3 nM

From here, focus on the item given below.
INPUT: Lab note: need IC50 with Human PD-L1/PD-1 (Homo sapiens) for entry CCCC[C@H]1C(=O)N(C)[C@@H](CCSC)C(=O)N[C@@H](CCCNC(=N)N)C(=O)NC(C(=O)NCC(N)=O)CSCC(=O)N[C@@H](Cc2ccc(O)cc2)C(=O)N(C)[C@@H](C)C(=O)N[C@@H](CC(N)=O)C(=O)N2CCC[C@H]2C(=O)N[C@@H](Cc2cnc[nH]2)C(=O)N[C@@H](CO)C(=O)N2CCC[C@H]2C(=O)N[C@@H](Cc2c[nH]c3ccccc23)C(=O)N[C@@H](CO)C(=O)N[C@@H](Cc2csc3ccccc23)C(=O)N1C (some centres unmarked) [Example 9106] ({CH2CO}-Y[NMeA]NPHSPWS[Bta][NMeNle][NMeM]R[ξC]G-NH2; thioether N-14) , please look it up.
OUTPUT: 0.385 to 6.74 nM

###

Catalogue of pIC50 readings, one per entry.
- Tested target: Human PD-L1/PD-1 (Homo sapiens, UniProt Q9NZQ7)
- Construct: made in house; host or cells: HEK293T
- Sequence (Q9NZQ7 with tags, fused parts or gaps): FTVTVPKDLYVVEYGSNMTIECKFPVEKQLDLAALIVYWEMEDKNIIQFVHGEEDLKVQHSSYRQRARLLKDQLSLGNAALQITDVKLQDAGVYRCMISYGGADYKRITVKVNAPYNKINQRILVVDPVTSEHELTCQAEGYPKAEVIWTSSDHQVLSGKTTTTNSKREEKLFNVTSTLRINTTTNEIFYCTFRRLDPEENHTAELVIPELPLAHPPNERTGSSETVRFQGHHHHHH
- Assay info: HTRF PD-1-Ig/PD-L1-His binding assay (human PD-L1)
- Test conditions: cluster symbol; read-out: HTRF IC50 cluster
pIC50: −log10 of the molar value. Positions of bridges follow the written chain, without caps; N, C: chain ends. Non-standard residues stand in square brackets, D forms with d. Residues, ends and D or L forms follow the SMILES beside them. ξ: configuration not given here. Phe(4-CH2NH2) = NCc1ccc(C[C@H](N)C(=O)O)cc1; Bta = N[C@@H](Cc1csc2ccccc12)C(=O)O; NMeF = CN[C@@H](Cc1ccccc1)C(=O)O; dNMeNle = CCCC[C@@H](NC)C(=O)O; NMeNle = CCCC[C@H](NC)C(=O)O; NMeA = CN[C@@H](C)C(=O)O; dDap = NC[C@@H](N)C(=O)O; Dab = NCC[C@H](N)C(=O)O; ξP = O=C(O)C1CCCN1; Sar = CNCC(=O)O

Consider the following illustrative entries.
CCCC[C@H]1C(=O)N(C)CC(=O)N[C@@H](CC(=O)O)C(=O)N[C@@H](C(C)C)C(=O)N(C)[C@@H](Cc2ccccc2)C(=O)N[C@@H](Cc2ccc(O)cc2)C(=O)N(C)CC(=O)N[C@@H](Cc2c[nH]c3ccccc23)C(=O)N[C@@H](Cc2ccc(O)cc2)C(=O)N[C@@H](Cc2ccc(CN)cc2)C(=O)N[C@H](C(=O)NCC(N)=O)CSCC(=O)N[C@@H](Cc2ccccc2)C(=O)N(C)[C@@H](Cc2ccccc2)C(=O)N1C [Example 3536] ({CH2CO}-F[NMeF][NMeNle][Sar]DV[NMeF]Y[Sar]WY[Phe(4-CH2NH2)]CG-NH2; thioether N-13) = 7.52 to 8.17
CCCC[C@H]1C(=O)N(C)[C@@H](CCCC)C(=O)N[C@@H](CCCNC(=N)N)C(=O)N[C@H](C(=O)NCC(N)=O)CSCC(=O)N[C@@H](Cc2ccc(O)cc2)C(=O)N(C)[C@@H](C)C(=O)N[C@@H](CC(N)=O)C(=O)N2CCC[C@H]2C(=O)N[C@@H](Cc2cnc[nH]2)C(=O)N[C@@H](CC(C)C)C(=O)N2CCC[C@H]2C(=O)N[C@@H](Cc2c[nH]c3ccccc23)C(=O)N[C@@H](CO)C(=O)N[C@@H](Cc2csc3ccccc23)C(=O)N1C [Example 1014] ({CH2CO}-Y[NMeA]NPHLPWS[Bta][NMeNle][NMeNle]RCG-NH2; thioether N-14) = 8.17 to 9.41

INPUT: // pIC50 lookup, key: CCCC[C@@H]1C(=O)N(C)[C@H](CCCC)C(=O)N[C@@H](C)C(=O)N[C@@H](C(=O)NCC(N)=O)CSCC(=O)N[C@@H](Cc2ccc(O)cc2)C(=O)N2CCCC2C(=O)N[C@H](CC(=O)O)C(=O)N2CCC[C@H]2C(=O)N[C@H](CN)C(=O)N[C@@H](CCC(=O)O)C(=O)N2CCCC2C(=O)N[C@H](Cc2c[nH]c3ccccc23)C(=O)N[C@@H](CCN)C(=O)N[C@@H](Cc2c[nH]c3ccccc23)C(=O)N1C (stereo partly shown) [Example 1209] ({CH2CO}-Y[ξP][dD]P[dDap]E[ξP][dW][Dab]W[dNMeNle][dNMeNle]A[dC]G-NH2; thioether N-14)
OUTPUT: 7.52 to 8.17

INPUT: What does the data say about its pIC50? Entry: CCCC[C@H]1C(=O)N(C)[C@@H](CCCC)C(=O)N[C@@H](CCCNC(=N)N)C(=O)N[C@H](C(=O)NCC(N)=O)CSCC(=O)N[C@@H](Cc2ccccc2)C(=O)N(C)[C@@H](C)C(=O)N[C@@H]([C@@H](C)O)C(=O)N2CCC[C@H]2C(=O)N[C@@H](Cc2cnc[nH]2)C(=O)N[C@@H](CC(C)C)C(=O)N(C)CC(=O)N[C@@H](Cc2c[nH]c3ccccc23)C(=O)N[C@@H](CO)C(=O)N[C@@H](Cc2c[nH]c3ccccc23)C(=O)N1C [Example 5020] ({CH2CO}-F[NMeA]TPHL[Sar]WSW[NMeNle][NMeNle]RCG-NH2; thioether N-14)
OUTPUT: < 7.52
